- System: NCI-H226 lung
- PROTOCOL TEXT: NCI tumour cell line growth inhibition, 48 h
ASSAY READOUT: GI50

compound="O=C(/C=C/C12c3ccccc3C(c3ccccc31)C1C(=O)NC(=O)C12)c1ccncc1 (stereo unspecified)" assay_readout=GI50 result="2440 nM"
compound=Cn1c2ccccc2c2c(Nc3ccccc3)c3ccccc3nc21 assay_readout=GI50 result="16400 nM"
compound=COc1ccc2c(C3=C(c4cn(C)c5ccccc45)C(=O)NC3=O)cn(C)c2c1 assay_readout=GI50 result="2630 nM"
compound=CCCCCN(CCCCC)CCCNc1c2c(nc3ccc(Cl)cc13)CCCC2 assay_readout=GI50 result="2050 nM"
compound=Cc1cc(I)cc(CN(C)CCCCN2CCCCC2)c1O assay_readout=GI50 result="25700 nM"
compound=C=C(CN1CCN(c2ccc(Cl)cc2F)CC1)c1ccc(C(=O)Nc2ccccc2N)cc1 assay_readout=GI50 result="3290 nM"

###

- Test system: HL-60(TB) leukemia
- PROTOCOL TEXT: NCI tumour cell line growth inhibition, 48 h
ASSAY READOUT: TGI

compound="COC(=O)[C@H](Cc1c[nH]c2ccccc12)NP(=O)(O)OCC1C=CC(n2cc(C)c(=O)[nH]c2=O)O1 (stereo partly specified)" result="> 100 µM"
compound=CN1CCN([C@H]2C[C@H]3[C@@H]4CC=C5C[C@@H](O)CC[C@]5(C)[C@H]4CC[C@]3(C)C2=O)CC1 result="> 100 µM"
compound=Cc1ccc2c(=O)cc(-c3ccc(F)cc3)[nH]c2n1 result="34.3 µM"
compound="COc1ccc(C2c3cc4c(cc3OC(NNS(=O)(=O)c3ccc(C)cc3)C2C)OCO4)cc1 (stereo unspecified)" result="84.7 µM"
compound=C[n+]1c2ccccc2c(/C=N\NS(=O)(=O)c2ccc(O)c(C(=O)O)c2)c2ccccc21 result="84.2 µM"
compound="COc1ccc(/C=C2\\CCC(C)C3=C2NC(=S)NC3c2ccc(OC)c(OC)c2)cc1OC (stereo unspecified)" result="> 31.6 µM"
compound=CN(C)C(=N)c1ccccc1 result="> 100 µM"
compound=Cc1cc(I)cc(CN(C)CCCCN2CCCCC2)c1O result="26.3 µM"
compound=Cc1cc(O)c2c(=O)c3ccccc3[nH]c2c1 result="64.7 µM"
compound=C(/c1ccco1)=c1/nc(-c2ccccc2)n2c1nc1ccccc12 result="> 100 µM"
compound="CNC(=O)C(C)C1CCC2(C)C=CC(=O)C(C)=C2C1O (stereo unspecified)" result="> 100 µM"

###

This section presents compounds with their documented TGI values.
- System: SF-268 CNS
- PROTOCOL TEXT: NCI tumour cell line growth inhibition, 48 h
ASSAY READOUT: TGI

mol_smiles=O=C1C(=O)N(c2ccc(Cl)cc2Cl)C(=O)C(=O)C1c1nc2ccccc2s1 assay_readout=TGI result="> 100 µM"
mol_smiles=COc1cc(/C=C/C(=N\NS(=O)(=O)c2ccc(C)cc2)c2sc(NNC(C)=O)nc2C)ccc1O assay_readout=TGI result="> 100 µM"
mol_smiles=CCCCCCCCCCCOc1ccc(C(=O)C(=O)c2ccc(OCCCCCCCCCCC)c(OCCCCCCCCCCC)c2)cc1OCCCCCCCCCCC assay_readout=TGI result="> 100 µM"

###

- Tested on: KM12 colon
- PROTOCOL TEXT: NCI tumour cell line growth inhibition, 48 h
ASSAY READOUT: TGI

compound=CC(=O)NC1=C(NCCC(C)C)C(=O)c2ccccc2C1=O result="> 50 µM"
compound="COC1(OC)CCC2C1C1CCC(OC)(OC)C21 (stereo unspecified)" result="> 50 µM"
compound=CC(=O)NNc1nc(C)c(C(=O)NNC(=O)C(=O)Nc2c(Cl)cc([N+](=O)[O-])cc2Cl)s1 result="> 100 µM"
compound=Cc1ccsc1/C=N/Nc1ncccn1 result="> 100 µM"
compound=CN(C)CC[N+]1=Nc2cccc3cccc(c23)N1 result="> 100 µM"
compound=COC(=O)[C@H]1CO[C@@H](C(C)(C)C)N1C(=O)N1C=CC(=O)C[C@@H]1C result="> 100 µM"
compound=Cc1ccc(N=Nc2ccc(N(CCC#N)CCC#N)cc2C)c(Br)c1 result="55.8 µM"
compound=O=c1[nH]cc(N=Cc2cc(Cl)cc(Cl)c2O)c(=O)[nH]1 result="85 µM"
compound="COc1ccc(C(OCC2OC(n3cc(C)c(=O)[nH]c3=O)CC2n2cc(Cn3cc(I)c(=O)[nH]c3=O)nn2)(c2ccccc2)c2ccccc2)cc1 (stereo unspecified)" result="> 100 µM"
compound="NC(Cc1c[nH]c2c(O)cccc12)C(=O)O (stereo unspecified)" result="> 100 µM"
compound="CC1=CC2C(O1)C1C(=O)C=CC(=O)C1=CC2[N+](=O)[O-] (stereo unspecified)" result="> 55.9 µM"
compound=O=C(Nc1ccc(C2=NCCN2)cc1)c1cncc(C(=O)Nc2ccc(C3=NCCN3)cc2)c1 result="> 100 µM"
compound=CCN(CC)CCC(=O)Nc1ccc2c(c1)C(=O)c1ccc(NC(=O)CCN(CC)CC)cc1C2=O result="4.57 µM"
compound=NC(=O)c1cccc2cn(-c3ccc([C@@H]4CCCNC4)cc3)nc12 result="30.6 µM"
compound=O=C1/C(=C/c2cccc([N+](=O)[O-])c2)COc2ccc(O)cc21 result="3.32 µM"
compound=Oc1cc2c3c(c1)c1cc4c(cc1c[n+]3CC2)OCO4 result="13.9 µM"
compound="CC(C)=CC(=O)C1c2cccc(O)c2C(=O)c2c(O)cc(C)cc21 (stereo unspecified)" result="3.17 µM"
compound=CC(C)C/C(CC(=O)CCC(=O)Nc1ccccc1[N+](=O)[O-])=N\NC(=O)c1cc2ccccc2cc1O result="> 100 µM"
compound="CN1C(=O)C(C)(C)C2(SC(C)(C)C2(C)C)N(C)C1=S (stereo unspecified)" result="> 100 µM"
compound=COc1cc(-c2nn(-c3ccc(NC(=O)c4ccc(Cl)c(C(F)(F)F)c4)cc3)cc2-c2ccncc2)ccc1Cl result="4.84 µM"
compound=CC(=O)NNc1nc(C)c(C(=O)NNC(=O)C(=O)Nc2ccc(Cl)cc2)s1 result="> 100 µM"

###

This section presents molecules with their documented TGI values.
- System: ACHN renal
- PROTOCOL TEXT: NCI tumour cell line growth inhibition, 48 h
ASSAY READOUT: TGI

molecule=C/C(CC(=O)CCC(=O)Nc1cccc(C(F)(F)F)c1)=N\NC(=O)NN target_or_test_system="ACHN renal" result="> 100 µM"
molecule=Cc1nc2ccccc2c(=O)n1-c1ccccc1I target_or_test_system="ACHN renal" result="> 100 µM"
molecule=Oc1cc2c3c(c1)c1cc4c(cc1c[n+]3CC2)OCO4 target_or_test_system="ACHN renal" result="> 100 µM"
molecule="Cc1cc(=O)[nH]c(NN2C(Cl)C(=O)C2c2ccccc2O)n1 (configuration not stated)" target_or_test_system="ACHN renal" result="> 100 µM"
molecule="N#CC1=C(N)N(c2ccccc2)C(c2ccco2)C1(C#N)C#N (configuration not stated)" target_or_test_system="ACHN renal" result="32 µM"
molecule="N#CC(c1ccc(Cl)cc1)c1cccc(C(C#N)c2ccc(Cl)cc2)n1 (configuration not stated)" target_or_test_system="ACHN renal" result="> 100 µM"
molecule="COc1cc([C@@H]2OCC3C(c4ccc5c(c4)OCO5)OCC32)cc(OC)c1OC (some centres not stated)" target_or_test_system="ACHN renal" result="> 100 µM"
molecule=O=CC[C@H]1C(=O)C[C@@H]2CCC[C@@H]21 target_or_test_system="ACHN renal" result="> 100 µM"
molecule=O=C(Nc1ccccc1)NS(=O)(=O)c1ccc(-n2nc3c(c2-c2cccs2)Cc2ccccc2-3)cc1 target_or_test_system="ACHN renal" result="38 µM"
molecule=COC1=CC(=O)c2nc(-c3ccncc3)[nH]c2C1=O target_or_test_system="ACHN renal" result="> 100 µM"
molecule=O=C1/C(=C/c2ccccc2)CN(C(=O)C(Cl)(Cl)Cl)C/C1=C\c1ccccc1 target_or_test_system="ACHN renal" result="4.62 µM"
molecule=O=C(CCC(=O)c1ccc(Cl)cc1)NO target_or_test_system="ACHN renal" result="> 100 µM"
molecule=CCOc1ccc(NC(=O)C(=O)CC(=O)c2c[n+](=O)c3cc(C)c(C)cc3n2[O-])cc1 target_or_test_system="ACHN renal" result="> 100 µM"
molecule="CNC(=O)OCC1=C(COC(=O)NC)C(C)N(c2ccc(OC)cc2)C1 (configuration not stated)" target_or_test_system="ACHN renal" result="> 100 µM"
molecule=CC(C)c1ccc(/C=C2/C=C(c3ccc4ccccc4c3)OC2=O)cc1 target_or_test_system="ACHN renal" result="> 100 µM"
molecule="CC1=C(C(=O)Nc2ccc(Cl)c(Cl)c2)C(c2cccc(Oc3ccccc3)c2)NC(=S)N1 (configuration not stated)" target_or_test_system="ACHN renal" result="15.1 µM"
molecule=COc1c(C)c(C/C=C(\C)CCCCO[Si](c2ccccc2)(c2ccccc2)C(C)(C)C)c(OC)c(OC)c1OC target_or_test_system="ACHN renal" result="25.1 µM"
